- System: K-562 leukemia
- assay_text: NCI-60 one-dose screen, 48 h (100 = growth as untreated, 0 = no growth, -100 = all killed)
- condition_info: 10 µM unless noted
Compounds without any hit were thinned out: in the full panel of roughly 83,000, 20% have a hit.
The threshold is 20%. Values of growth beneath it are tagged T; values meeting or exceeding it are tagged F.

*Q* Is it true that growth reported for `CCCCc1c(Nn2cnnn2)no[n+]1[O-]` is less than 20%?
*A* F

*Q* // repeat for `N#Cc1c(-c2cccc(Cl)c2Cl)cc(-c2ccc3ccccc3c2)[nH]c1=O` and report
*A* F

*Q* What do you have for `COc1cc2oc(-c3cccc(NC(=O)[C@H](Cc4ccccc4)NC(=O)OC(C)(C)C)c3)cc(=O)c2c(OC)c1OC` ?
*A* F

*Q* And then `CNS(=O)(=O)c1ccc(Nc2ccc(C(F)(F)F)cc2)c(-c2cn(C)cn2)c1` , what is it?
*A* F

*Q* Same read-out for `CCCSc1nc(NCCc2c[nH]c3ccccc23)c(C#N)c(-c2ccc(OC)cc2)n1` ?
*A* F

*Q* Input COc1cc(C2CC(c3ccc(S(=O)(=O)NCCNc4nc(Nc5ccc(F)cc5)nc(N(C)C)n4)cc3)=Nc3c(N)nc(N)nc3N2)cc(OC)c1OC (stereo not given)
*A* F

*Q* Can you handle `Cn1nc(C(F)(F)F)cc1-c1cc(Cl)c(COc2ccc(Cl)cc2)c(-c2ccc(Cl)c(C(F)(F)F)c2)c1O` next?
*A* T

*Q* Now give it for `NS(=O)(=O)c1ccc(CCNC(=O)CSc2ccc(-c3ccc(Br)cc3)nn2)cc1` too.
*A* F

*Q* Next compound up: `CCC(C)(C)c1ccc(OCCCCN2CCN(c3ccncc3)CC2)cc1`
*A* T

*Q* And `CN(C)c1nc(NCCNS(=O)(=O)c2ccc(C(=O)/C=C/c3ccc(Cl)cc3)cc2)nc(Nc2ccc(F)cc2)n1` ?
*A* T

*Q* And then COc1ccc(N2N=C(c3ccc4c(c3)OCO4)CC2c2cccc(NC(=O)CCNS(=O)(=O)c3ccc(Cl)cc3)c2)cc1 (stereo not given) , what is it?
*A* T

*Q* Now give it for CC(C)(C)OC(=O)/C=C/c1cccc2c1C(=O)NC(C)(c1cc3cc(Cl)ccc3oc1=O)N2 (stereo not given) too.
*A* T

*Q* What about `NS(=O)(=O)c1ccc(N=Nc2c(O)n(CC(=O)Nc3ccccc3)c3ccccc23)cc1` ?
*A* T

*Q* What do you have for `Cc1ccc(C(=O)NN2C(=O)/C(=C/C=C/c3ccc([N+](=O)[O-])o3)SC2=S)cc1` ?
*A* T

*Q* Again, but for `CN(C)CCn1c2ccccc2c2nc3cc4ccccc4cc3nc21`
*A* T

*Q* Same again, this time with `CSc1ccccc1NC(=O)c1ccc2nnn(/C(C#N)=C/c3ccccn3)c2c1`
*A* T

*Q* Another: C#CCOc1cc(N(CC)CC)ccc1C(C(=O)NC(C)(C)C)N(C(=O)C1CCc2cc(F)ccc2O1)c1ccc(Br)cc1 (stereo not given)
*A* F

*Q* Next record, please: O=C1CC(Sc2n[nH]c(-c3ccncc3)n2)C(=O)N1c1ccc(Br)cc1 (stereo not given)
*A* F

*Q* Same for `NC(=S)Nc1cccc(NC(N)=S)c1`
*A* T

*Q* Also, `Brc1ccc(-c2n(Cc3ccc4ccccc4c3)c(-c3ccccc3)c(-c3ccccc3)[n+]2Cc2ccc3ccccc3c2)cc1` please.
*A* T

*Q* Do the same for O=C(c1ccc(OCCN2CCOCC2)cc1)C1[C@H](c2ccc(Cl)cc2)[C@@H](c2ccccc2)NC12C(=O)Nc1ccc(Br)cc12 (stereo not given in full) please
*A* T

*Q* Follow-up entry: `c1ccc(-c2csc(Nc3cccc(Nc4nc(-c5ccccc5)cs4)c3)n2)cc1`
*A* F

*Q* Same for COc1c(F)ccc(C(=O)Nc2ccc3nc(NC(=O)C4CCCN(S(=O)(=O)c5ccc(C#N)cc5)C4)sc3c2)c1F (stereo not given)
*A* F

*Q* How about COc1c(F)ccc(C(=O)Nc2ccc3nc(NC(=O)C4CCCN(S(=O)(=O)c5cccc(Cl)c5)C4)sc3c2)c1F (stereo not given) ?
*A* F

*Q* Note, next up: COCOc1cc2oc(C(=O)N[C@@H](Cc3ccccc3)C(O)C(=O)NCc3ccccc3)c(C)c(=O)c2cc1OCOC (stereo not given in full)
*A* F

*Q* Param item: Cc1nc(Nc2ncc(C(=O)Nc3c(C)cccc3Cl)s2)cc(N2CCN(CCCNC(=O)COc3ccc(C4CCC(=O)NC4=O)cc3)CC2)n1 (stereo not given)
*A* T

*Q* Now the same for C=C1CCC2C3(C)COC(c4ccccc4)OC3CCC2(C)C1CC(Sc1ccccc1)C1=CCOC1=O (stereo not given)
*A* T

*Q* One more compound: C=C1CCC2C3(C)COC(c4ccc(F)cc4)OC3CCC2(C)C1C/C=C1/C(=O)OCC1O (stereo not given)
*A* T

*Q* Please give the result for CC1=C(C(=O)OC(C)C)C(c2cccc(O)c2)NC(=S)N1 (stereo not given) too.
*A* F

*Q* // next record COc1c(F)ccc(C(=O)Nc2ccc3nc(NC(=O)C4CCCN(S(=O)(=O)c5ccc(Br)c(F)c5)C4)sc3c2)c1F (stereo not given)
*A* F

*Q* Another: `O=C(c1ccc(Cl)cc1)c1ccc(OCCCN2CCN(c3ccncc3)CC2)cc1`
*A* T

*Q* One more compound: `O=C(Cn1nc(-c2ccccc2)ccc1=O)N/N=C/c1ccc(N2CCOCC2)cc1`
*A* F

*Q* Likewise for CC12CC[C@@H]3[C@]4(C)COC(c5c(F)cccc5F)O[C@@H]4CC[C@@]3(C)[C@@H]1CC(C1=CCOC1=O)O2 (stereo not given in full) ?
*A* F

*Q* # iterate: C#CCOc1cc(N(CC)CC)ccc1C(C(=O)NC(C)(C)C)N(C(=O)C1CCc2cc(F)ccc2O1)c1cc(C)cc(C)c1 (stereo not given)
*A* T

###

- Test system: MDA-MB-231 breast
- assay_text: NCI-60 one-dose screen, 48 h (100 = growth as untreated, 0 = no growth, -100 = all killed)
- condition_info: 10 µM unless noted
About 83,000 compounds went through this panel and 20% of them were active in at least one assay; those are over-represented in the sample as a whole.
So basically: growth at 20% or higher? That is true (1). Lower than 20%? That is false (0).

*Q* Is it the case that `CC(C)c1sc(NC(=O)c2cc(NC(=O)c3cc(NC(=O)c4cscn4)cn3C)cn2C)nc1C(=O)NCCCN(C)C` has growth reaching or exceeding 20%?
*A* false (0)

*Q* Another: `COc1ccc(NC(=O)Cn2c(/C=C/c3cccc([N+](=O)[O-])c3)nc3ccccc3c2=O)cc1`
*A* false (0)

*Q* One more compound: COc1ccc2oc(=O)c(C3(C)NC(=O)c4c(/C=C/C(=O)OC(C)(C)C)cccc4N3)cc2c1 (configuration not stated)
*A* true (1)

*Q* Can you check COc1cc(C2CC(c3cc(OC)c(OC)c(OC)c3)=NN2c2ccccc2)ccc1OCc1ccc(C)cc1 (configuration not stated) next?
*A* true (1)

*Q* Next: `CCCCSc1nc(NCCc2c[nH]c3ccccc23)c(C#N)c(-c2ccccc2)n1`
*A* false (0)

*Q* // same read-out, input: Cc1ccc(NC(=O)[C@]23CCC(C)(C)CC2C2=CCC4[C@@]5(C)C[C@@H](O)[C@H](O)[C@@](C)(CO)C5CC[C@@]4(C)[C@]2(C)CC3)cc1 (some centres not stated)
*A* false (0)

*Q* Also check COc1ccc(C2=NN(c3ccccc3)C(c3ccc(OCc4ccccc4)c(OC)c3)C2)cc1OC (configuration not stated)
*A* true (1)

*Q* Cool, now `O=C(Nc1ccccc1)N1CCN(c2cc(-c3cn(-c4ccccc4)nc3-c3cccc(O)c3)ccn2)CC1`
*A* true (1)

*Q* Proceed to C=C1CCC2C3(C)COC(c4ccccc4)OC3CCC2(C)C1CC(NCc1ccccc1)C1=CCOC1=O (configuration not stated)
*A* true (1)

*Q* Now give it for `N/C(=N\c1nc2ccccc2s1)NC(=O)Nc1ccccc1Br` too.
*A* false (0)

*Q* Do the same for `O=C(COc1ccc(NC(=O)Nc2ccc(Cl)c(Cl)c2)cc1)N=Nc1c(O)[nH]c2ccc(Cl)cc12` please
*A* false (0)

*Q* Lookup `Cn1cc(-c2cc(N)n3nc(-c4cn(C)c5ncc(Br)cc45)cc3n2)c2cc(Br)cnc21`
*A* false (0)

*Q* Now consider `COc1ccc2[nH]cc(-c3nc(N)nnc3-c3cn(C)c4ncccc34)c2c1` and answer again.
*A* true (1)

*Q* And the next one, `COc1ccc(/C=C/c2nc3ccccc3c(=O)n2CC(=O)Nc2ccc(OC)cc2)cc1` ?
*A* true (1)

*Q* Ok, now COc1cc(C2CC(c3cc(OC)c(OC)c(OC)c3)=Nc3c(N)nc(N)nc3N2)ccc1Oc1nc(NCCO)nc(N2CCOCC2)n1 (configuration not stated)
*A* true (1)

*Q* Another compound: `Cc1ccc(-c2nc(C#N)c(S(=O)(=O)N3CCN(S(=O)(=O)c4ccccc4)CC3)o2)cc1`
*A* true (1)

*Q* Now this one: CN(C)c1nc(NCCNS(=O)(=O)c2ccc(C3=Nc4c(N)nc(N)nc4NC(c4ccc(Cl)cc4)C3)cc2)nc(Nc2ccc(F)cc2)n1 (configuration not stated)
*A* false (0)
